Values were extracted from ChEMBL document CHEMBL1130894.

test system: Helicobacter pylori; experiment: Antibacterial activity was evaluated against Helicobacter pylori (FP1757).; assay type: functional
Assay Endpoint: MIC (µg/mL)

Worked set:
{"Smiles Entry": "Nc1cccc(COc2cccc3cnccc23)c1Cl", "Assay Target": "Helicobacter pylori", "MIC [µg/mL]": 0.78}
{"Smiles Entry": "Nc1cccc(COc2cccc3cnccc23)c1", "Assay Target": "Helicobacter pylori", "MIC [µg/mL]": 1.56}
{"Smiles Entry": "c1cc(OCc2cccc3nonc23)c2ccncc2c1", "Assay Target": "Helicobacter pylori", "MIC [µg/mL]": 0.78}
{"Smiles Entry": "O=[N+]([O-])c1ccc(Cl)c(COc2cccc3cnccc23)c1Cl", "Assay Target": "Helicobacter pylori", "MIC [µg/mL]": 1.56}

[P] Nc1ccc(Cl)c(COc2cccc3cnccc23)c1Cl
[Q] Oc1cccc2cnccc12
[R] CC(=O)Nc1cccc(COc2cccc3cnccc23)c1
[S] CC[C@H]1OC(=O)[C@H](C)[C@@H](O[C@H]2C[C@@](C)(OC)[C@@H](O)[C@H](C)O2)[C@H](C)[C@@H](O[C@@H]2O[C@H](C)C[C@H](N(C)C)[C@H]2O)[C@](C)(OC)C[C@@H](C)C(=O)[C@H](C)[C@@H](O)[C@]1(C)O
[T] CC(=O)Nc1cc(Cl)cc(COc2cccc3cnccc23)c1Cl
Sort entries by MIC from minimum to maximum value. Provide the labels, sequenced as the question asks.
S, T, P, R, Q
